Tested on: Escherichia coli
EXPERIMENTAL_PROTOCOL: in vitro antibacterial evaluation, MIC by broth dilution
Format: cell-based
MEASUREMENT_CONTEXT: strain GC 4559; broth dilution, 18 hours at 35° C.
Measured MIC Escherichia coli (GC 4559) accompanies every entry in the list below.
PROPERTY_MEASURED: MIC Escherichia coli (GC 4559) (µg/mL)

{"columns": ["COMPOUND", "ASSAY_TARGET", "UNITS_SYMBOL", "LIMIT_QUALIFIER", "MEASUREMENT"],
 "data": [
  ["CC(c1ccccc1)C1NC(=O)CNC(=O)C(CO)NC(=O)C(C(O)C2CNC(=N)N2C2OC(CO)C(O)C(O)C2O)NC(=O)C(C(O)C2CNC(=N)N2)NC(=O)C(Cc2ccc3oc(-c4ccc(C(=O)O)cc4)nc3c2)NC1=O (stereo not shown) [Example 25]", "Escherichia coli", "µg/mL", ">", 128],
  ["CC(c1ccccc1)C1NC(=O)CNC(=O)C(CO)NC(=O)C(C(O)C2CNC(=N)N2C2OC(CO)C(O)C(O)C2O)NC(=O)C(C(O)C2CNC(=N)N2)NC(=O)C(Cc2ccc3oc(SCc4ccccc4)nc3c2)NC1=O (stereo not shown) [Example 45]", "Escherichia coli", "µg/mL", "=", 16],
  ["CC(c1ccccc1)C1NC(=O)CNC(=O)C(CO)NC(=O)C(C(O)C2CNC(=N)N2C2OC(CO)C(O)C(O)C2O)NC(=O)C(C(O)C2CNC(=N)N2)NC(=O)C(Cc2ccc3oc(SCc4ccc(-c5ccccc5)cc4)nc3c2)NC1=O (stereo not shown) [Example 47]", "Escherichia coli", "µg/mL", ">", 64],
  ["CC(c1ccccc1)C1NC(=O)CNC(=O)C(CO)NC(=O)C(C(O)C2CNC(=N)N2C2OC(CO)C(O)C(O)C2O)NC(=O)C(C(O)C2CNC(=N)N2)NC(=O)C(Cc2ccc3oc(-c4ccccc4OC4OC(CO)C(O)C(O)C4O)nc3c2)NC1=O (stereo not shown) [Example 36]", "Escherichia coli", "µg/mL", "=", 128]
]}

Just for reference, patent US6914045B2 is where these values come from.
